Assayed Target: T1, Native human IL-18 (human, UniProt Q14116 37-193)
T1 sequence: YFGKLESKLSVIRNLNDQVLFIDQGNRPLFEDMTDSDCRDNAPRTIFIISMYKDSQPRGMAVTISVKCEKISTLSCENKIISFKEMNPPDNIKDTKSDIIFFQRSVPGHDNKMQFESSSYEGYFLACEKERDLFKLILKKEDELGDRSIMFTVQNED
Run Description: cell-based or functional assay
Quick reference for IC50, inhibition of IFN-γ release, human whole blood, LPS/IL-12 (native IL-18) among some binders

Observe how each entry below is paired with its result.
{"Binder": "MOR9464_N30H (antibody, human IgG1, lambda, L234A L235A, V domains shown) VH: EVQLVQSGAEVKKPGSSVKVSCKASGGTFHSYAISWVRQAPGQGLEWMGNIIPMTGQTYYAQKFQGRVTITADESTSTAYMELSSLRSEDTAVYYCARAAYHPLVFDNWGQGTLVTVSS VL: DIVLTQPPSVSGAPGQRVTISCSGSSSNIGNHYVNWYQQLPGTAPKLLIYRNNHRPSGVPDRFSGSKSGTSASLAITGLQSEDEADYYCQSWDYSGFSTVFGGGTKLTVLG", "Endpoint Result": "23 nM"}
{"Binder": "MOR9464_N30V (antibody, human IgG1, lambda, L234A L235A, V domains shown) VH: EVQLVQSGAEVKKPGSSVKVSCKASGGTFVSYAISWVRQAPGQGLEWMGNIIPMTGQTYYAQKFQGRVTITADESTSTAYMELSSLRSEDTAVYYCARAAYHPLVFDNWGQGTLVTVSS VL: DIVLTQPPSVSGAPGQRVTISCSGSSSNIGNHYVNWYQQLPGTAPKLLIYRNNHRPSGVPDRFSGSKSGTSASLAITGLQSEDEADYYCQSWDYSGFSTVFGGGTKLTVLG", "Endpoint Result": "19.6 nM"}

QUERY: Dear colleague, I am looking for the recorded IC50, inhibition of IFN-γ release, human whole blood, LPS/IL-12 (native IL-18) of the following binder: MOR13361 (antibody, human IgG1, kappa, L234A L235A, V domains shown) VH: QVQLLESGGGLVQPGGSLRLSCAASGFTFSSYAIHWVRQAPGKGLEWVSTIQSSGENKFYADSVKGRFTISRDNSKNTLYLQMNSLRAEDTAVYYCARVMIGYGFDYWGQGTLVTVSS VL: DIQMTQSPSSLSASVGDRVTITCRASQSIFNYLNWYQQKPGKAPKLLIYDSSTLQSGVPSRFSGSGSGTDFTLTISSLQPEDFATYYCHQYSGLLFTFGQGTKVEIKR
RESULT: 39.4 nM
